method: chemical genetic growth profiling, strain panel (AID 1159580);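 note: tested at 20 µM; growth read once vehicle control cultures reached saturation at 30 °C; 1 = growth at the plate median or of vehicle wells; lower values mean less growth of the strain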
applied.conditions: S. cerevisiae deletion strains, growth OD, locus YCL011C, strain gbp2, hits give low values
In all, about 5,500 compounds went through this assay and about 2,000 (36%) were called active. Not shown: some 18% with an inconclusive outcome. This is one part of the list.
Measured normalized growth values are reported for all entries that follow.
measurement.label: normalized growth

{"compound": "O=c1ccc2c(O)c3ccoc3cc2o1", "measurement.label": "normalized growth", "measured": "0.989 (inactive)"}
{"compound": "COc1ccc(Cl)cc1C(=O)NCCc1ccc(S(=O)(=O)NC(=O)NC2CCCCC2)cc1", "measurement.label": "normalized growth", "measured": "1.01 (inactive)"}
{"compound": "O=C1[O][Bi][O]c2ccccc21", "measurement.label": "normalized growth", "measured": "0.966 (inactive)"}
{"compound": "CC(C1OC(C)(C)C(O)C1O)[C@@H]1CC[C@]2(C)C3=CCC4C(C)(C)C(=O)CC[C@]4(C)C3CC[C@@]12C (some centres undefined)", "measurement.label": "normalized growth", "measured": "0.981 (inactive)"}
{"compound": "CC1(C)C2CC(=O)[C@]3(C)C(CC[C@@]4(C)[C@H](c5ccoc5)OC(=O)C5OC543)[C@@]2(C)[C@@H](O)C[C@H]1O (some centres undefined)", "measurement.label": "normalized growth", "measured": "1.01 (inactive)"}
{"compound": "COC(=O)c1c(C)cc(O)cc1O", "measurement.label": "normalized growth", "measured": "1.01 (inactive)"}
{"compound": "CCOC(=O)c1c(C)cc(OC)cc1O", "measurement.label": "normalized growth", "measured": "0.975 (inactive)"}
{"compound": "COc1ccc2ccc(=O)oc2c1", "measurement.label": "normalized growth", "measured": "0.98 (inactive)"}
{"compound": "O=C(O)C1=C[C@@H](O)[C@@H](O)[C@H](O)C1", "measurement.label": "normalized growth", "measured": "0.99 (inactive)"}
